Molecular target: Phosphoethanolamine/phosphocholine phosphatase (Homo sapiens) (UniProt Q8TCT1)
Sequence (Q8TCT1 whole entry, looked up): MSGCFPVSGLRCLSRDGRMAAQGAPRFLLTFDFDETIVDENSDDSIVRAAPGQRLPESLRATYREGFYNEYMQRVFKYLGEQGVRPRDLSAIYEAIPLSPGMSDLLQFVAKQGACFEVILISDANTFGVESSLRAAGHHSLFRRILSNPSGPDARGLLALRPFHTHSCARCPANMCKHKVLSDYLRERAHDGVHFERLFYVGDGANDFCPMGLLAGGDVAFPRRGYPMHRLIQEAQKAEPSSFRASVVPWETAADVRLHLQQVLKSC
Assay: PubChem AID 1565
Settings: recombinant PHOSPHO1, absorbance phosphatase assay; at 13.3 µM; active compounds read high
Among all 290,000 compounds or so, about 3,200 (1.1%) were called active. The entries come from a sample that favours actives as a whole.
Returns one of 1.0 or 0.0; 1.0 when inhibition is >= 40%.

COMPOUND | SUBJECT_OF_TEST | CLASS
CCOC(=O)CNC(=O)CSc1nnc(-c2cccc(OC)c2)n1CC | Phosphoethanolamine/phosphocholine phosphatase (Homo sapiens) (UniProt Q8TCT1) | 1.0
CCOC(=O)CNC(=O)CSc1nnc(COc2ccc(Cl)cc2)n1CC | Phosphoethanolamine/phosphocholine phosphatase (Homo sapiens) (UniProt Q8TCT1) | 1.0
CCn1c(COc2ccc(OC)cc2)nnc1SCC(=O)Nc1cc(OC)ccc1OC | Phosphoethanolamine/phosphocholine phosphatase (Homo sapiens) (UniProt Q8TCT1) | 0.0
COc1cccc(NC(=O)CCNS(=O)(=O)c2ccc3c(c2)oc(=O)n3C)c1 | Phosphoethanolamine/phosphocholine phosphatase (Homo sapiens) (UniProt Q8TCT1) | 1.0
CC1Sc2ccc(S(=O)(=O)CCC(=O)NCc3ccccc3Cl)cc2NC1=O (stereo unspecified) | Phosphoethanolamine/phosphocholine phosphatase (Homo sapiens) (UniProt Q8TCT1) | 0.0
CCCCn1c(SCC(=O)NCC2CCCO2)nc2ccc(N3CCOCC3)cc2c1=O (stereo unspecified) | Phosphoethanolamine/phosphocholine phosphatase (Homo sapiens) (UniProt Q8TCT1) | 0.0
CCCCNC(=O)CSc1nc2ccc(NC(=O)CSc3nnc(N)s3)cc2s1 | Phosphoethanolamine/phosphocholine phosphatase (Homo sapiens) (UniProt Q8TCT1) | 0.0
Cc1ccc(N2C(=O)CC(Sc3ncn[nH]3)C2=O)cc1 (stereo unspecified) | Phosphoethanolamine/phosphocholine phosphatase (Homo sapiens) (UniProt Q8TCT1) | 1.0
COc1ccc2[nH]c(C(=O)N3CCN(C)CC3)c(C)c2c1 | Phosphoethanolamine/phosphocholine phosphatase (Homo sapiens) (UniProt Q8TCT1) | 0.0
O=C(CN(C(=O)c1csnn1)c1ccc(Br)cc1)NC1CCCC1 | Phosphoethanolamine/phosphocholine phosphatase (Homo sapiens) (UniProt Q8TCT1) | 0.0
O=C(CN1CCN(C(=O)C2CCCO2)CC1)Nc1c(Cl)cccc1Cl (stereo unspecified) | Phosphoethanolamine/phosphocholine phosphatase (Homo sapiens) (UniProt Q8TCT1) | 0.0
O=C1CC(Sc2ncn[nH]2)C(=O)N1c1ccccc1 (stereo unspecified) | Phosphoethanolamine/phosphocholine phosphatase (Homo sapiens) (UniProt Q8TCT1) | 1.0
Cc1ccc(N(C(=O)CNC(=O)c2ccco2)C(C(=O)NC2CCCC2)c2ccncc2)cc1 (stereo unspecified) | Phosphoethanolamine/phosphocholine phosphatase (Homo sapiens) (UniProt Q8TCT1) | 1.0
Cn1c(=O)oc2cc(S(=O)(=O)NCCC(=O)NCc3ccccc3Cl)ccc21 | Phosphoethanolamine/phosphocholine phosphatase (Homo sapiens) (UniProt Q8TCT1) | 1.0
COc1cccc(CNS(=O)(=O)c2cc3c(cc2C)n(C)c(=O)c(=O)n3C)c1 | Phosphoethanolamine/phosphocholine phosphatase (Homo sapiens) (UniProt Q8TCT1) | 0.0
CCOC(=O)c1ccc(NC(=O)CSc2nnc(COc3ccccc3OC)n2C)cc1 | Phosphoethanolamine/phosphocholine phosphatase (Homo sapiens) (UniProt Q8TCT1) | 0.0

----------
# inhibition annotations
Target: Phosphoethanolamine/phosphocholine phosphatase (Homo sapiens)
Experiment: PubChem AID 1565
Details: recombinant PHOSPHO1, absorbance phosphatase assay; at 13.3 µM; active compounds read high
Out of some 290,000 compounds screened, about 3,200 (1.1%) were called active. Shown is part of a subset that was picked to be rich in actives.

MOLECULE | SUBJECT_OF_TEST | UNIT_ABBREV | inhibition
COc1cc(CN2CCC(n3nccc3NC(=O)CCCc3ccccc3)CC2)ccc1O | Phosphoethanolamine/phosphocholine phosphatase (Homo sapiens) | % | -5
Cc1ccc(OCC(=O)NCCCNC(=O)c2ccco2)cc1C | Phosphoethanolamine/phosphocholine phosphatase (Homo sapiens) | % | 16
CC(=O)c1cc(C#N)c(SCC(=O)C(C)(C)C)nc1C | Phosphoethanolamine/phosphocholine phosphatase (Homo sapiens) | % | 75.8
CCC(NC(=O)c1cc(COc2ccc(F)c(F)c2)on1)c1ccncc1 (stereo unspecified) | Phosphoethanolamine/phosphocholine phosphatase (Homo sapiens) | % | 21.8
Cc1cc(-c2n[nH]c(=S)n2/N=C/c2ccco2)n[nH]1 | Phosphoethanolamine/phosphocholine phosphatase (Homo sapiens) | % | -60
COc1ccc(-n2nc(C(=O)NCC(=O)N3CCCCCC3)c3ccccc3c2=O)cc1Cl | Phosphoethanolamine/phosphocholine phosphatase (Homo sapiens) | % | 36
CC(=O)c1cc(C#N)c(SCC(=O)Nc2nccs2)nc1C | Phosphoethanolamine/phosphocholine phosphatase (Homo sapiens) | % | 28.8
O=C(CSc1nnc(-c2c[nH]c3ccccc23)n1-c1ccc(F)cc1)NCc1ccco1 | Phosphoethanolamine/phosphocholine phosphatase (Homo sapiens) | % | 9.8
CCn1cc(CN2CCC(n3nccc3NC(=O)CCCc3ccccc3)CC2)c(C)n1 | Phosphoethanolamine/phosphocholine phosphatase (Homo sapiens) | % | 29
CCCC(C)c1nnc(NC(=O)C2CC(=O)N(c3ccc(OCC)cc3)C2)s1 (stereo unspecified) | Phosphoethanolamine/phosphocholine phosphatase (Homo sapiens) | % | 36.2
COc1ccc(C(=O)NCCn2nc(C)cc2C)cc1OC1CCN(C(C)=O)CC1 | Phosphoethanolamine/phosphocholine phosphatase (Homo sapiens) | % | 19.2
CCn1c(SCC(=O)NCc2ccco2)nnc1-c1ccc(N)cc1 | Phosphoethanolamine/phosphocholine phosphatase (Homo sapiens) | % | 42.7
Cn1c(-c2ccc(F)cc2)cnc1SCC(=O)NCc1ccco1 | Phosphoethanolamine/phosphocholine phosphatase (Homo sapiens) | % | 65.2
S=c1[nH]nc(-c2ccc(Cl)cc2)n1CC1CCCO1 (stereo unspecified) | Phosphoethanolamine/phosphocholine phosphatase (Homo sapiens) | % | 90.4
CCc1cccc(C)c1NS(=O)(=O)c1cc(Br)cnc1N | Phosphoethanolamine/phosphocholine phosphatase (Homo sapiens) | % | 35.5
CC(=O)N[C@@H](C)C(=O)N1CCC(n2nccc2NC(=O)CCCc2ccccc2)CC1 | Phosphoethanolamine/phosphocholine phosphatase (Homo sapiens) | % | 61.6

----------
Target: Phosphoethanolamine/phosphocholine phosphatase (Homo sapiens) (UniProt Q8TCT1)
Assay: PubChem AID 1565
Conditions: recombinant PHOSPHO1, absorbance phosphatase assay; at 13.3 µM
The campaign covered roughly 290,000 compounds. About 3,200 (1.1%) were called active. Rule as the data show it: active = inhibition above about 60%; inactive = the rest. Shown is part of a subset that was picked to be rich in actives.
Possible outcomes: active, inactive

MOLECULE | CLASS
O=C(NNS(=O)(=O)c1ccc([N+](=O)[O-])cc1)C1CCCCC1 | active
CC1CCCC(NC(=O)CSc2nccn2C)C1C (centres undefined) | active
CC(=O)N1c2ccc(S(=O)(=O)N3CCCC(C(=O)Nc4ccc(C)cc4C)C3)cc2CC1C (centres undefined) | inactive
CC1CCN(CC(O)COc2ccc(C(=O)c3ccccc3)cc2)CC1 (centres undefined) | inactive
COc1cccc(NC(=O)c2nn(C34CC5CC(CC(C5)C3)C4)cc2[N+](=O)[O-])c1 | inactive
COc1ccc(Cl)cc1NC(=O)CN1CCN(C(=O)N2CCOCC2)CC1 | inactive
O=S(=O)(/C=C/c1ccccc1)N1CCNCC1 | inactive
O=C(CC(c1ccccc1)c1ccccc1)NCC(O)c1ccc([N+](=O)[O-])cc1 (centres undefined) | inactive
O=C(CNc1cccc(S(=O)(=O)N2CCCCC2)c1)Nc1ccccc1F | inactive
CCNC(=O)CCc1nc(-c2ccc(C)cc2)no1 | inactive
CCCCSc1nc2ccccc2[nH]1 | inactive
Cc1ncn(C23CC4CC(CC(O)(C4)C2)C3)n1 | inactive
COc1ccc(CCNC(=O)C2CCCN2C(=O)Nc2ccccc2)cc1OC (centres undefined) | inactive
COc1ccc(C(=O)OCC(=O)NCCCc2ccccc2)cc1OC | inactive
COc1ccc(CCNC(=O)C(=O)NCC2OCCN2S(=O)(=O)c2cccs2)cc1OC (centres undefined) | inactive
Cc1ccc(-c2cc(N)on2)cc1 | inactive
CCOC(=O)c1c(C)n(C)c2ccc(OC)c(NC(=O)CN3CCC4(CC3)OCCO4)c12 | active
CC(=O)Nc1ccc(NC(=O)C2CCCN2S(=O)(=O)c2cccc(C(F)(F)F)c2)cc1 (centres undefined) | inactive
Cc1ccc(NC(=O)CSc2sc3c(O)cc(=O)[nH]c3c2C#N)cc1C | inactive
Cc1cc(=O)[nH]c(SCC(N)=O)c1C#N | inactive
O=C(Cc1ccccc1)NNS(=O)(=O)c1ccc([N+](=O)[O-])cc1 | inactive
O=C(CCN1C(=O)[C@@H]2Cc3ccccc3CN2C1=O)NCCc1ccccc1 | inactive
COc1ccc(C2NC(=O)N(C)C(C)=C2[N+](=O)[O-])cc1 (centres undefined) | inactive
O=C(C[C@H]1C(=O)N(c2ccc(F)c(F)c2)C[C@@H]1Cc1ccccc1)Nc1ccccc1 | inactive
Cc1nnc(SCC(N)=O)n1CC1CCCO1 (centres undefined) | inactive
COc1ccccc1OCCNC(=O)CCNC(=O)c1ccccc1Cl | inactive
S=c1[nH]ccn1-c1ccc(Cl)cc1 | inactive
COc1ccccc1C(=O)OCC(=O)NCCNC(=O)COC(=O)c1ccccc1OC | active
O=C(NNS(=O)(=O)c1ccc(F)cc1)C1CCCCC1 | inactive
COc1ccc(CCNC(=O)COC(=O)c2ccc[nH]c2=O)cc1 | inactive
CCOC(=O)c1cc(C(=O)Nc2ccc(S(=O)(=O)Nc3ccc(OC)cc3)cc2)nn1C | inactive
CCCCCn1c(=O)[nH]c2cc(C(=O)NCCCN3CCCCC3C)ccc2c1=O (centres undefined) | inactive
CCN(c1cccc(C)c1)S(=O)(=O)c1ccc(-c2coc(C)n2)cc1 | inactive
O=C1/C(=C/c2ccc(F)cc2)SC(=S)N1CCCC(=O)N1CCCCC1CCO (centres undefined) | inactive
COc1cccc(NC(=O)CCc2nnc3ccc(N4CCC(C)CC4)nn23)c1 | inactive
Cn1ccnc1SCC(=O)Nc1ccc2c(c1)OCCO2 | inactive
CCNC(=O)Nc1ccc(S(=O)(=O)Nc2cnc(C)nc2C)cc1 | inactive
CCOC(=O)c1c(C)n(C)c2ccc(OC)c(NS(=O)(=O)CC)c12 | inactive
CCCCSc1nnc2c(n1)OC=Nc1ccccc1-2 | active
